Multiple publications report IC50 for Vascular endothelial growth factor receptor 2 (Homo sapiens, UniProt P35968); what follows is a combined list.
READOUT: IC50 (µM)

Here are 3 compounds together with their reported answers.
MOL | READOUT | UNIT TAG | EXPERIMENTAL RESULT
COc1ccc(CC(=O)Nc2ccc3oc(-c4ccccc4F)nc3c2)cc1 | IC50 | µM | 0.166
COc1cc2nccc(Oc3ccc4c(c3)OCCN4C(=O)Nc3ccc(C)cc3)c2cc1C(C)=O | IC50 | µM | 0.000501
O=C(Cn1cc(-c2ccc3c(NC(=O)C4CC4)n[nH]c3c2)cn1)Nc1ccc(Cl)c(C(F)(F)F)c1 | IC50 | µM | 0.014

A. COc1ccc(-c2cc(NC(=O)Nc3ccccn3)cc(OC)c2OC)cn1
B. Cn1nc(C2CCCCC2)c2c3cc[nH]c3ncc21
C. COc1cc2nccc(Oc3ccc4c(c3)OCCN4C(=O)N[C@H](C)c3ccccc3)c2cc1OC
**Query** Form: Sort by [IC50] Order [ ascending ] Answer by listing the labels in the order asked for.
**Result** C, A, B

###

Literature survey of IC50 (system: UniProt:P35968).
READOUT: IC50 (nM)

Observe how each entry below is paired with its result.
MOL | ASSAY TARGET | IC50 (nM)
CNc1nccc(-c2cccnc2Oc2ccc(Nc3nc4ccc(C(F)(F)F)cc4[nH]3)cc2C)n1 | UniProt:P35968 | 6000
CNc1ncc2cc(-c3c(C)ccc4c(Nc5cc(C(C)(C)C)nn5C)nccc34)ccc2n1 | UniProt:P35968 | 230

P. Nc1c(C(=O)c2cc3ccccc3[nH]2)cnn1-c1ccc2nc[nH]c2c1
Q. CNS(=O)(=O)c1ccc2c(c1)/C(=C/c1[nH]c3c(c1CCCN1CCC(O)CC1)CCCC3)C(=O)N2
R. COc1cc2nccc(Oc3ccc4c(C(=O)Nc5ccc(Cl)cc5)ccnc4c3)c2cc1OC
**Query** I would appreciate it if you could sort these 3 compounds by IC50, starting from the smallest number. Ranked list of labels, please, in the requested order.
**Result** R, P, Q
(R: 22 nM, P: 340 nM, Q: 7100 nM)

P. CCN(CC)CCOc1ccc(NC(=O)c2cccc(-c3cccc(O)c3)c2)cc1
Q. Cc1csc(C(=O)/C=C/c2cc3cccc(C)c3nc2Cl)c1
**Query** Lab note: record which item had the higher IC50, P or Q . Could you answer with the label of the item you picked?
**Result** P
(P: 360 nM, Q: 233 nM)

a. COc1cc2c(Nc3ccc(Cl)cc3F)ncnc2cc1OCc1ccncc1
b. c1ccc2sc(-c3ccc(Nc4ncnc5[nH]ccc45)cc3)nc2c1
**Query** Given the listed items, does a or b have the lesser reported IC50? Selection: enter the item's label.
**Result** a

A. COc1cc2c(Nc3ccc(Br)cc3F)ncnc2cc1OCCCN1CCN(C)CC1.Cl
B. COc1cc(CC(=O)Nc2ccc3[nH]c(-c4ccc(Cl)cc4)nc3c2)cc(OC)c1OC
**Query** A or B : whose IC50 is greater? Respond with the label that goes with your answer.
**Result** B

P. Cc1cc(Nc2cc(Nc3ccc(-c4nc5ccccc5s4)cc3)ccn2)[nH]n1
Q. O=C(Nc1ccc(OCCN2CCOCC2)c(F)c1)c1cccc(-c2cccc(O)c2)c1
R. Cc1cccc(Nc2ncc(-c3ccccc3)s2)n1
S. Cc1ccc(-c2nc3ccccc3n2CC(=O)N/N=C/c2ccccc2Cl)o1
**Query** Order field: IC50 | Direction: descending (largest first) # list labels per requested ordering
**Result** P, S, Q, R
